# TARGET OR SYSTEM: T1, recombinant human interleukin 12 (p40/p35 heterodimer) (human, UniProt P29460 23-328; P29459 23-219)
# T1 chain 1: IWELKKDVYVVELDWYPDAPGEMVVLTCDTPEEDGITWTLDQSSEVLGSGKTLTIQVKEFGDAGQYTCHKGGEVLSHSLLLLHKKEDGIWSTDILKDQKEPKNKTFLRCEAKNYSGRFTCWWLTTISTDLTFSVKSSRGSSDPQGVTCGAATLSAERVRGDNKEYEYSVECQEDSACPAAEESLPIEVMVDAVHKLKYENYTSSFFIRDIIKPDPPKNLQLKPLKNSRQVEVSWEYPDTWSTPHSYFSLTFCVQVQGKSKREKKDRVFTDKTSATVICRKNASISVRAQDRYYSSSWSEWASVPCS
# T1 chain 2: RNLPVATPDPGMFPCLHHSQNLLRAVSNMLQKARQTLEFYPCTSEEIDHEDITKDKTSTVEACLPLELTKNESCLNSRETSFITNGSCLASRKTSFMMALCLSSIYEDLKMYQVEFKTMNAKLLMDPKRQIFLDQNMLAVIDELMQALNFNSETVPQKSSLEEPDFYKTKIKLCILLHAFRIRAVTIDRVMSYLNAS
# METHOD DESCRIPTION: BIAcore; unmutated
MEASURE NAME: koff (s⁻¹)

>  <BINDER>
FIRYDGSNKYYADSVKG [Y61 H53 D]

>  <UNIT INFO>
s⁻¹

>  <koff>
0.000151

$$$$
>  <BINDER>
FIRYDGSNKYYADSVKG [Y61 H54 G]

>  <UNIT INFO>
s⁻¹

>  <koff>
0.000178

$$$$
>  <BINDER>
FIRYDGSNKYYADSVKG [Y61 H50 F]

>  <UNIT INFO>
s⁻¹

>  <koff>
0.000204

$$$$
>  <BINDER>
FIRYDGSNKYYADSVKG [Y61 H52 R]

>  <UNIT INFO>
s⁻¹

>  <koff>
0.000206

$$$$
